Provenance of the data: patent US20080015189A1

- method: Partition coefficient between 2-octanol and pH 7.4 buffered saline
- Assay type: physicochemical
- experimental_context: between 2-octanol and pH 7.4 buffered saline
- Excerpt: The relative photoactivities of the three photosensitizers studied herein were gauged by their abilities to generate singlet oxygen (^1O2) when illuminated with a beam of red light having an adjusted intensity such that each dye absorbed the same number of photons per unit time. […] Finally, because of the relevance of lipophilicity to the present studies, the partition coefficients for the PS between 2-octanol and phosphate-buffered saline (pH=7.4) are listed^18.
reported_property: logP
Output: the number by itself.

Qu. Name the recorded logP for CCN=c1cc2[se]c3cc(N(CC)CC)ccc3nc-2c2ccccc12 .
Ans. 2.08
